# EXPERIMENT: Selectivity index, ratio of IC50 for rat L6 cells to IC50 for erythrocytic stage of chloroquine-sensitive Plasmodium falciparum NF54
# Assay type: toxicity, cell-based
# RUN PARAMETERS: read-out: Ratio IC50
Listed here are compounds together with their documented selectivity ratio.

1. CN(C)CCCNc1nc2ccccc2c2c1c1ccccc1n2C ... 7.5
2. c1ccc2c(c1)nc(NCC1CCCO1)c1c3ccccc3[nH]c21 (stereo not given) ... 18.1
3. Cn1c2ccccc2c2c(NCC(C)(C)CN)nc3ccccc3c21 ... 0.9
4. CS(=O)(=O)NCCCNc1nc2ccccc2c2[nH]c3ccccc3c12 ... 19.6

The reported value for `S=C(NCCCNc1nc2ccccc2c2[nH]c3ccccc3c12)Nc1ccccc1` in terms of selectivity ratio is 10.6

The reported value for `O=C(NCCCNc1nc2cccc(Br)c2c2[nH]c3ccccc3c12)Nc1ccccc1` in terms of selectivity ratio is 12.6

The reported value for `CC(C)(CN)CNc1nc2ccc(Cl)cc2c2[nH]c3ccccc3c12` in terms of selectivity ratio is 72.1

The reported value for `Cn1c2ccccc2c2c(NCCCN)nc3ccc(Br)cc3c21` in terms of selectivity ratio is 26.3

The reported value for `NCCCCNc1nc2ccccc2c2[nH]c3ccccc3c12` in terms of selectivity ratio is 20.5

The reported value for CC(CNC(=O)Nc1ccccc1)CNc1nc2ccc(Cl)cc2c2[nH]c3ccccc3c12 (stereo not given) in terms of selectivity ratio is 377

The reported value for `NCCCNc1nc2ccc(Br)cc2c2[nH]c3ccccc3c12` in terms of selectivity ratio is 110

----------
# EXPERIMENT: Selectivity index, ratio of IC50 for rat L6 cells to IC50 for erythrocytic stage of chloroquine-sensitive Plasmodium falciparum NF54
# Format: toxicity, cell-based
# RUN PARAMETERS: read-out: Ratio IC50
Listed here are molecules together with their documented selectivity ratio.
Just the number, please, no unit attached.

Please review the following examples before continuing.
1) NCCCNc1nc2ccc(F)cc2c2[nH]c3ccccc3c12 ... 49.1
2) Cc1ccc2nc(NCCCN)c3c4ccccc4[nH]c3c2c1 ... 8.9
3) O=S(=O)(NCCCNc1nc2ccccc2c2[nH]c3ccccc3c12)c1ccccc1 ... 11.3

The reported value for CC(CN)CNc1nc2ccc(Cl)cc2c2[nH]c3ccccc3c12 (configuration not stated) in terms of selectivity ratio is 65

The reported value for `NCCCCCNc1nc2ccccc2c2[nH]c3ccccc3c12` in terms of selectivity ratio is 64.8

----------
Listed here are molecules together with their documented IC50.
# EXPERIMENT: Binding affinity to haematin assessed as inhibition of beta-haematin formation after 5 to 6 hrs by pyridine-ferrichrome-based method
Give just the number in µM; leave the unit off.

Please review the following examples before continuing.
1) NCCCNc1nc2ccccc2c2[nH]c3ccccc3c12 ... 116
2) OCCNc1nc2ccccc2c2[nH]c3ccccc3c12 ... 200

Shift focus to the following entry.
The reported value for `O=C(NCCCNc1nc2ccc([N+](=O)[O-])cc2c2[nH]c3ccccc3c12)Nc1ccccc1` in terms of IC50 is 15.2

----------
# Test system: L6
# EXPERIMENT: Cytotoxicity against rat L6 cells after 70 hrs by Alamar Blue assay
# Format: functional, cell-based
# RUN PARAMETERS: L6, 70 h
pIC50: −log10 of the molar value.
Each entry gets No if its pIC50 stays under 6, and Yes if its pIC50 is 6 or above.

1. NCCCNc1nc2ccc(F)cc2c2[nH]c3ccccc3c12 ... Yes
2. CN(C)CCCNc1nc2ccc(Br)cc2c2c1c1ccccc1n2C ... Yes
3. CC(C)(CNC(=O)Nc1ccccc1)CNc1nc2ccc(Cl)cc2c2[nH]c3ccccc3c12 ... No

Check the entry `Cn1c2ccccc2c2c(NCC(C)(C)CN)nc3ccc(Br)cc3c21` : does pIC50 equal or exceed 6? Yes

Check the entry `c1ccc2c(c1)nc(N1CCCNCC1)c1c3ccccc3[nH]c21` : does pIC50 equal or exceed 6? No

Check the entry `O=C(NCCCNc1nc2ccccc2c2[nH]c3ccccc3c12)c1cccs1` : does pIC50 equal or exceed 6? No

----------
# EXPERIMENT: Selectivity index, ratio of IC50 for rat L6 cells to IC50 for erythrocytic stage of chloroquine-sensitive Plasmodium falciparum NF54
# Type: toxicity, cell-based
# RUN PARAMETERS: read-out: Ratio IC50
MEASURED PARAMETER: selectivity ratio

1) NCCCNc1nc2ccc(Cl)cc2c2[nH]c3ccccc3c12 ... 181

The reported value for `CN(C)CCCNc1nc2ccc(Cl)cc2c2c1c1ccccc1n2C` in terms of selectivity ratio is 7.7

The reported value for `CN(C)CCCNc1nc2ccc(Br)cc2c2c1c1ccccc1n2C` in terms of selectivity ratio is 9.4

The reported value for `O=C(NCCCNc1nc2ccc(Cl)cc2c2[nH]c3ccccc3c12)Nc1ccccc1` in terms of selectivity ratio is 95.1

----------
# EXPERIMENT: Selectivity index, ratio of IC50 for rat L6 cells to IC50 for erythrocytic stage of chloroquine-sensitive Plasmodium falciparum NF54
# Assay type: toxicity, cell-based
# RUN PARAMETERS: read-out: Ratio IC50
# label = T if selectivity ratio < 60 else F

1. O=C(NCCCNc1nc2ccc(Br)cc2c2[nH]c3ccccc3c12)Nc1ccccc1 ... T
2. O=C(NCCCNc1nc2ccccc2c2[nH]c3ccccc3c12)Nc1ccccc1 ... F

Below 60 on selectivity ratio? Entry `OCCNc1nc2ccccc2c2[nH]c3ccccc3c12` T

Below 60 on selectivity ratio? Entry `CN(C)CCCNc1nc2ccccc2c2[nH]c3ccccc3c12` F

Below 60 on selectivity ratio? Entry `Cn1c2ccccc2c2c(Cl)nc3ccccc3c21` T

Below 60 on selectivity ratio? Entry `c1ccc(CNc2nc3ccccc3c3[nH]c4ccccc4c23)cc1` F

Below 60 on selectivity ratio? Entry `COc1ccc2nc(NCCCN)c3c4ccccc4n(C)c3c2c1` T

----------
# System: L6
# EXPERIMENT: Cytotoxicity against rat L6 cells after 70 hrs by Alamar Blue assay
# Assay type: functional, cell-based
# RUN PARAMETERS: L6, 70 h
pIC50: −log10 of the molar value.
Each entry gets Not satisfied if its pIC50 stays under 6, and Satisfied if its pIC50 is 6 or above.

Use these answered entries as a reference point.
1) Cn1c2ccccc2c2c(Cl)nc3ccccc3c21 ... Not satisfied
2) Cc1ccc2nc(NCCCN)c3c4ccccc4[nH]c3c2c1 ... Satisfied
3) O=C(NCCCNc1nc2cccc(Br)c2c2[nH]c3ccccc3c12)Nc1ccccc1 ... Not satisfied

Please look at the following compound next.
Check the entry `CN(C)CCCNc1nc2ccc(Cl)cc2c2c1c1ccccc1n2C` : does pIC50 equal or exceed 6? Satisfied

----------
# EXPERIMENT: Selectivity index, ratio of IC50 for rat L6 cells to IC50 for erythrocytic stage of chloroquine-sensitive Plasmodium falciparum NF54
# Format: toxicity, cell-based
# RUN PARAMETERS: read-out: Ratio IC50
# label = yes if selectivity ratio < 60 else no

Use these answered entries as a reference point.
1) NCCCNc1nc2ccccc2c2[nH]c3ccccc3c12 ... yes
2) O=C(NCCCCCCNc1nc2ccccc2c2[nH]c3ccccc3c12)Nc1ccccc1 ... yes
3) NCCCN1CCN(CCCNc2nc3ccccc3c3[nH]c4ccccc4c23)CC1 ... no

Below 60 on selectivity ratio? Entry `CC(C)(CNC(=O)Nc1ccccc1)CNc1nc2ccc(Cl)cc2c2[nH]c3ccccc3c12` no

----------
# System: L6
# EXPERIMENT: Cytotoxicity against rat L6 cells after 70 hrs by Alamar Blue assay
# Type: functional, cell-based
# RUN PARAMETERS: L6, 70 h
# label = TRUE if IC50 < 1000 nM else FALSE

Use these answered entries as a reference point.
1. O=C(NCCCNc1nc2ccccc2c2[nH]c3ccccc3c12)Nc1ccccc1 ... FALSE
2. NCCCCNc1nc2ccccc2c2[nH]c3ccccc3c12 ... TRUE

Please look at the following compound next.
Below 1000 nM on IC50? Entry `COc1ccc2nc(NCCCNC(=O)Nc3ccccc3)c3c4ccccc4[nH]c3c2c1` FALSE

----------
Listed here are compounds together with their documented pIC50.
# Test system: L6
# EXPERIMENT: Cytotoxicity against rat L6 cells after 70 hrs by Alamar Blue assay
# Type: functional, cell-based
# RUN PARAMETERS: L6, 70 h
Just the number, please; pIC50 means minus log10 of the concentration in mol/L.

Please review the following examples before continuing.
1) OCCNc1nc2ccccc2c2[nH]c3ccccc3c12 ... 6.05
2) CS(=O)(=O)NCCCNc1nc2ccccc2c2[nH]c3ccccc3c12 ... 5.97
3) O=S(=O)(NCCCNc1nc2ccccc2c2[nH]c3ccccc3c12)c1ccccc1 ... 6.09
4) OCCCNc1nc2ccccc2c2[nH]c3ccccc3c12 ... 6.14
5) NCCCNc1nc2ccc(Cl)cc2c2[nH]c3ccccc3c12 ... 5.95
6) O=C(NCCCNc1nc2ccc(F)cc2c2[nH]c3ccccc3c12)Nc1ccccc1 ... 5.82
7) O=C(NCCCNc1nc2ccc(Br)cc2c2[nH]c3ccccc3c12)Nc1ccccc1 ... 5.89

Shift focus to the following entry.
The reported value for `NCCCNc1nc2ccc(Br)cc2c2[nH]c3ccccc3c12` in terms of pIC50 is 6.05

Just for reference, ChEMBL document CHEMBL3259682 is where these values come from.
